targetOrTestSystem: S1P1/EDG1 (Homo sapiens, UniProt P21453)
Sequence (P21453 whole entry): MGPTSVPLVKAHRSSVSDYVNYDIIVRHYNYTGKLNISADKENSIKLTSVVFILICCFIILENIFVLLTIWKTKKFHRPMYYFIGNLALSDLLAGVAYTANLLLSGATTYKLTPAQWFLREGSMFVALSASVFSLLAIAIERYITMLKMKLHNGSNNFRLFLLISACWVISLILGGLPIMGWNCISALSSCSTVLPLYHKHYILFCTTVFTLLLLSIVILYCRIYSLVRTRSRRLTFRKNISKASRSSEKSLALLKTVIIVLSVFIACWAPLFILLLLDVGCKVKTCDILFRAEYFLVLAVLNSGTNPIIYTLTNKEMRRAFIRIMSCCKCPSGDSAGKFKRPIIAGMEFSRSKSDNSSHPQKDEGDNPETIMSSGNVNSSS
assayProtocol: S1P1 CRE-bla CHOK1 reporter assay (inhibition of Forskolin induced cAMP)
Type: cell-based
statedConditions: agonist activity range, Table 2; read-out: S1P1 ACTIVITY
pEC50: −log10 of the molar value.
recordedMetric: pEC50

Answered cases to consult:
• CC(C)Oc1ccc(-c2nnc(-c3cccc4c3CC[C@@H]4NCCO)s2)cc1C#N = 8.30 to 9.30
• CC(C)Oc1ccc(-c2ncc(-c3cccc4c3CC[C@@H]4NS(=O)(=O)CCN3CC[C@H](O)C3)s2)cc1C#N = 8.30 to 9.30
• CC(C)Oc1ccc(-c2ncc(-c3cccc4c3CC[C@@H]4NS(=O)(=O)CCN3CCCC3)s2)cc1C#N [Compound 129] = < 8.30
• CC(C)Oc1ccc(-c2ncc(-c3cccc4c3CCC4NS(=O)(=O)CCO)s2)cc1C#N (stereo in doubt) = 9.30 to 10.30
• CC(C)Oc1ccc(-c2nnc(-c3cccc4c3CC[C@H]4NC(=O)N3CCCC3)s2)cc1C#N = 9.30 to 10.30

State pEC50 on S1P1/EDG1 (Homo sapiens, UniProt P21453). Entry: CC(C)Oc1ccc(-c2ncc(-c3cccc4c3CC[C@H]4NS(=O)(=O)CCN3CCC[C@@H](O)C3)s2)cc1C#N (stereo in doubt)
8.30 to 9.30

State pEC50 on S1P1/EDG1 (Homo sapiens, UniProt P21453). Entry: `CC(C)Oc1ccc(-c2ncc(-c3cccc4c3CC[C@@H]4NCCO)s2)cc1C#N`
8.30 to 9.30

* * *

Listing of recorded pEC50 by entry.
targetOrTestSystem: S1P1/EDG1 (Homo sapiens)
assayProtocol: S1P1 CRE-bla CHOK1 reporter assay (inhibition of Forskolin induced cAMP)
Assay type: cell-based
statedConditions: agonist activity range, Table 2; read-out: S1P1 ACTIVITY
pEC50: −log10 of the molar value.

Answered cases to consult:
- CC(C)Oc1ccc(-c2ncc(-c3cccc4c3CC[C@@H]4NS(=O)(=O)CCN3CCC(O)CC3)s2)cc1C#N [Compound 146]: 8.30 to 9.30
- CC(C)Oc1ccc(-c2ncc(-c3cccc4c3CC[C@@H]4NCC(=O)N3CCCC3)s2)cc1C#N [Compound 100]: 9.30 to 10.30
- CC(C)Oc1ccc(-c2ncc(-c3cccc4c3CCC4N3CCCCC3)s2)cc1C#N (stereo not drawn) [Compound 213]: 8.30 to 9.30
- CC(C)Oc1ccc(-c2nnc(-c3cccc4c3CCC4NS(=O)(=O)CC(=O)O)s2)cc1C#N (stereo in doubt) [Compound 41]: > 10.30
- CC(C)Oc1ccc(-c2nnc(-c3cccc4c3CC[C@H]4NS(=O)(=O)CCN3CC[C@@H](O)C3)s2)cc1C#N (stereo in doubt) [Compound 38]: 8.30 to 9.30

Give the reported pEC50 for this compound. COC(=O)N[C@H]1CCc2c(-c3nnc(-c4ccc(OC(C)C)c(C#N)c4)s3)cccc21 [Compound 16]
8.30 to 9.30

Give the reported pEC50 for this compound. CC(C)Oc1ccc(-c2ncc(-c3cccc4c3CCC4NCC(=O)O)s2)cc1C#N (stereo in doubt) [Compound 96]
9.30 to 10.30

Give the reported pEC50 for this compound. CC(C)Oc1ccc(-c2nnc(-c3cccc4c3CC[C@@H]4O)s2)cc1C#N [Compound 1]
9.30 to 10.30

* * *

targetOrTestSystem: S1P5 (Homo sapiens)
Construct: Tango fusion (own knowledge: TEV protease site + GAL4-VP16 transcription factor fused to the receptor's C-terminus)
Sequence (Q9H228 whole entry, the tested form may be a part): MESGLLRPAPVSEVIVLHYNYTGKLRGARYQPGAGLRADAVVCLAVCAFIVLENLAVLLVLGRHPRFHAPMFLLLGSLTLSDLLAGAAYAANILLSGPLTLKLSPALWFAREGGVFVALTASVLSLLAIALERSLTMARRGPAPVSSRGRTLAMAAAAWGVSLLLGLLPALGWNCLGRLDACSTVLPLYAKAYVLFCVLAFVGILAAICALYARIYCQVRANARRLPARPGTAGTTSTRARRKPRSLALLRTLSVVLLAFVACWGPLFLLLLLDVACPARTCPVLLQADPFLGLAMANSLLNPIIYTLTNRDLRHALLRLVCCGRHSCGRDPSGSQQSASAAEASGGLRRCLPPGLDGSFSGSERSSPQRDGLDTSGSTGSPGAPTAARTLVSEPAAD
assayProtocol: Specificity over other S1P receptors: S1P5-bla TANGO U2OS
statedConditions: without Forskolin, FreeStyle Expression medium; read-out: S1P5 agonist value (EC50)
recordedMetric: pEC50
Answer as the number alone; pEC50 is minus log10 of concentration in mol/L.

* CC(C)Oc1ccc(-c2ncc(-c3cccc4c3CC[C@H]4NC(=O)N3CCOCC3)s2)cc1C#N [Compound 186] | 6.90

Give the reported pEC50 for this molecule. CC(C)Oc1ccc(-c2nnc(-c3cccc4c3CC[C@@H]4NS(N)(=O)=O)s2)cc1C#N [Compound 47]
7.66

* * *

targetOrTestSystem: S1P1/EDG1 (Homo sapiens)
assayProtocol: S1P1 CRE-bla CHOK1 reporter assay (inhibition of Forskolin induced cAMP)
Assay type: cell-based
statedConditions: agonist activity range, Table 2; read-out: S1P1 ACTIVITY
Structures can show the parent of a compound that is named as a salt.
Listing of recorded EC50 by entry.

Answered cases to consult:
- CCOc1ccc(-c2nnc(-c3cccc4c3CCC4O)s2)cc1OCC (stereo not shown): 0.5 to 5 nM
- COCCS(=O)(=O)N[C@H]1CCc2c(-c3cnc(-c4ccc(OC(C)C)c(C#N)c4)s3)cccc21 [Compound 116]: 0.5 to 5 nM
- CC(C)Oc1ccc(-c2ncc(-c3cccc4c3CC[C@@H]4NC(=O)N3CCC[C@H](O)C3)s2)cc1C#N [Compound 198]: 0.05 to 0.5 nM
- CC(C)Oc1ccc(-c2ncc(-c3cccc4c3CC[C@@H]4NS(=O)(=O)CCN3CCC[C@H](O)C3)s2)cc1C#N [Compound 144]: 0.5 to 5 nM

Give the reported EC50 for this compound. `CC(C)Oc1ccc(-c2ncc(-c3cccc4c3CC[C@@H]4NS(=O)(=O)CCN3CC[C@@H](N(C)C)C3)s2)cc1C#N`
> 5 nM

Give the reported EC50 for this compound. `CC(C)Oc1ccc(-c2nnc(-c3cccc4c3CC[C@@H]4NC(=O)N3CCCC3)s2)cc1C#N`
0.5 to 5 nM

Give the reported EC50 for this compound. CC(C)Oc1ccc(-c2nnc(-c3cccc4c3CC[C@@H]4N)s2)cc1C#N [Compound 4, hydrochloride]
0.5 to 5 nM

* * *

targetOrTestSystem: S1P1/EDG1 (Homo sapiens, UniProt P21453)
assayProtocol: S1P1 CRE-bla CHOK1 reporter assay (inhibition of Forskolin induced cAMP)
Format: cell-based
statedConditions: agonist activity range, Table 2; read-out: S1P1 ACTIVITY
pEC50: −log10 of the molar value.
recordedMetric: pEC50

* CC(C)Oc1ccc(-c2ncc(-c3cccc4c3CC[C@@H]4NC(=O)N3CCN(C)CC3)s2)cc1C#N [Compound 191] | < 8.30
* COC(=O)CS(=O)(=O)NC1CCc2c(-c3cnc(-c4ccc(OC(C)C)c(C#N)c4)s3)cccc21 (stereo in doubt) | 9.30 to 10.30
* CC(C)Oc1ccc(-c2ncc(-c3cccc4c3CC[C@@H]4NC(=O)N3CC[C@@H](N)C3)s2)cc1C#N [Compound 178] | 9.30 to 10.30
* CC(C)Oc1ccc(-c2ncc(-c3cccc4c3CC[C@@H]4NCC(=O)N3CC[C@H](O)C3)s2)cc1C#N [Compound 104] | 8.30 to 9.30
* CC(C)Oc1ccc(-c2ncc(-c3cccc4c3CC[C@@H]4NC(=O)CO)s2)cc1C#N | 9.30 to 10.30

Give the reported pEC50 for this compound. CC(C)Oc1ccc(-c2nnc(-c3cccc4c3CCC4NCCO)s2)cc1C#N (stereo in doubt)
9.30 to 10.30

Give the reported pEC50 for this compound. CC(C)Oc1ccc(-c2ncc(-c3cccc4c3CC[C@@H]4NC(=O)N3CC[C@H](O)C3)s2)cc1C#N [Compound 175]
8.30 to 9.30

* * *

Listing of recorded pEC50 by entry.
targetOrTestSystem: S1P1/EDG1 (Homo sapiens)
assayProtocol: S1P1 CRE-bla CHOK1 reporter assay (inhibition of Forskolin induced cAMP)
Type: cell-based
statedConditions: agonist activity range, Table 2; read-out: S1P1 ACTIVITY
pEC50: −log10 of the molar value.

Answered cases to consult:
• CC(C)Oc1ccc(-c2ncc(-c3cccc4c3CC[C@@H]4NS(=O)(=O)CC(=O)N3CC(O)C3)s2)cc1C#N [Compound 163] = 9.30 to 10.30
• COC(=O)CCS(=O)(=O)N[C@H]1CCc2c(-c3cnc(-c4ccc(OC(C)C)c(C#N)c4)s3)cccc21 [Compound 156] = 9.30 to 10.30
• CC(C)Oc1ccc(-c2ncc(-c3cccc4c3CC[C@@H]4NC(=O)N3CCNCC3)s2)cc1C#N [Compound 189] = < 8.30
• CC(C)Oc1ccc(-c2ncc(-c3cccc4c3CC[C@@H]4NCc3ncc[nH]3)s2)cc1C#N [Compound 110] = 8.30 to 9.30
• CC(C)Oc1ccc(-c2ncc(-c3cccc4c3CC[C@@H]4NC(=O)CN(C)C)s2)cc1C#N [Compound 81] = 8.30 to 9.30
• CC(C)Oc1ccc(-c2ncc(-c3cccc4c3CC[C@@H]4NCC(=O)N3CC[C@H](O)C3)s2)cc1C#N [Compound 103] = 9.30 to 10.30
• COC(=O)N[C@H]1CCc2c(-c3cnc(-c4ccc(OC(C)C)c(C#N)c4)s3)cccc21 [Compound 89] = 8.30 to 9.30
• COC(=O)CN[C@H]1CCc2c(-c3cnc(-c4ccc(OC(C)C)c(C#N)c4)s3)cccc21 [Compound 99] = 8.30 to 9.30
• CC(C)Oc1ccc(-c2ncc(-c3cccc4c3CCC4NC3CCCCC3)s2)cc1C#N (stereo not drawn) [Compound 218] = < 8.30
• CC(C)Oc1ccc(-c2ncc(-c3cccc4c3CC[C@@H]4NS(=O)(=O)CCN3CCCC3)s2)cc1C#N [Compound 130] = 8.30 to 9.30

State pEC50 on S1P1/EDG1 (Homo sapiens). Entry: CC(C)Oc1ccc(-c2ncc(-c3cccc4c3CCC4O)s2)cc1C#N (stereo in doubt) [Compound 69]
9.30 to 10.30
